# test_system: hGLP-1R (Homo sapiens, UniProt P43220)
# Sequence (P43220 24-463): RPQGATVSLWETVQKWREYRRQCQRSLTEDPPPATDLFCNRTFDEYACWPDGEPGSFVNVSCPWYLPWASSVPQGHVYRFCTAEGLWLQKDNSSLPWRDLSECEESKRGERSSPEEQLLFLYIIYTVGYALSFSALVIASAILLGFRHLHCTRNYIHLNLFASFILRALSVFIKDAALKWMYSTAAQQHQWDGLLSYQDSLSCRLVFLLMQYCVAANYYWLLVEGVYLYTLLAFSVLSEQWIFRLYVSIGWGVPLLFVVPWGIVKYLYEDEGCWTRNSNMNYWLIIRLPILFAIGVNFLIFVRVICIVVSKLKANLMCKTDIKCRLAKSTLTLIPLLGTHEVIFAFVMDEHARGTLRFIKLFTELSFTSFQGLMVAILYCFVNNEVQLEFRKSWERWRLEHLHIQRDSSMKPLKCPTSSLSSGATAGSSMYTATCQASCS
# assay_overview: Functional cAMP activity in the presence of 1% HSA
# Format: cell-based
# stated_conditions: read-out: cAMP Rel EC50, hGLP-1R
Starred links: 1 amine or outer side, 2 acyl side, 3 side chain; linkers in the order of their positions; H or OH if unused. Non-standard residues stand in square brackets, D forms with d. Groups on a side chain read outwards from the residue. No end group written: not given here. *: point of attachment. C20 diacid = O=C(O)CCCCCCCCCCCCCCCCCCC(=O)*; C18 diacid = O=C(O)CCCCCCCCCCCCCCCCC(=O)*; αMePhe(2-F) = C[C@](N)(Cc1ccccc1F)C(=O)O; γGlu = O=C(O)[C@H](CCC(=O)[*:2])N[*:1]; αMe4Pal = C[C@](N)(Cc1ccncc1)C(=O)O; αMeY = C[C@](N)(Cc1ccc(O)cc1)C(=O)O; 4Pal = N[C@@H](Cc1ccncc1)C(=O)O; αMeL = CC(C)C[C@](C)(N)C(=O)O; αMeS = C[C@](N)(CO)C(=O)O; Orn = NCCC[C@H](N)C(=O)O; AEEA = NCCOCCOCC(=O)O; Aib = CC(C)(N)C(=O)O
Threshold 0.4 µM. EC50 below it: yes (1). EC50 at it or above: no (0).

Strictly below 0.4 µM: is that where EC50 of H-Y[Aib]QGT[αMePhe(2-F)]TSD[4Pal][αMeS]I[αMeL]LD[Orn]K([AEEA-γGlu-γGlu-C18 diacid])AQ[αMe4Pal]EFI[dE][αMeY]LIEGGPSSGAPPPSGGGE-NH2 [Example 1180] sits?
yes (1)

Strictly below 0.4 µM: is that where EC50 of H-Y[Aib]QGT[αMePhe(2-F)]TSD[4Pal]SI[αMeL]LD[Orn]K([AEEA-γGlu-C18 diacid])AQ[αMe4Pal][Orn]FI[dE][αMeY]LEEGGPSSGEPPPEGT-NH2 [Example 506] sits?
yes (1)

Strictly below 0.4 µM: is that where EC50 of H-Y[Aib]QGTFTSD[4Pal]SQ[αMeL]LDKK([AEEA-γGlu-C18 diacid])AQ[αMe4Pal]AFIE[αMe4Pal]LIEGGPSSGAPPPSGSEE-NH2 [Example 954] sits?
yes (1)

Strictly below 0.4 µM: is that where EC50 of H-Y[Aib]QGTFTSD[4Pal]S[Orn][αMeL]LDKK([AEEA-γGlu-C18 diacid])AQ[Aib]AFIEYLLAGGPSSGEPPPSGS-NH2 [Example 154] sits?
no (0)

Strictly below 0.4 µM: is that where EC50 of H-Y[Aib]QGTFTSD[4Pal]SQ[αMeL]LD[Orn]K([AEEA-γGlu-γGlu-C18 diacid])AQ[αMe4Pal]AFIEYLIE[dA]GPSSGEPPPSGS-NH2 [Example 1018] sits?
yes (1)

Strictly below 0.4 µM: is that where EC50 of H-Y[Aib]QGT[αMePhe(2-F)]TSD[4Pal]SI[αMeL]LD[Orn]K([γGlu-γGlu-C18 diacid])AQ[αMe4Pal]EFI[dE][αMeY]LQEGGPSSGAPPPSGS-NH2 [Example 647] sits?
yes (1)

Strictly below 0.4 µM: is that where EC50 of H-Y[Aib]QGTFTSD[4Pal]SK[αMeL]LDKK([AEEA-γGlu-C18 diacid])AQ[Aib]AFIEYLIA[Aib]GESSGEPPPSGS-NH2 [Example 287] sits?
no (0)

Strictly below 0.4 µM: is that where EC50 of H-Y[Aib]Q[dA]T[αMePhe(2-F)]TSD[4Pal]SI[αMeL]LD[Orn]K([AEEA-γGlu-C18 diacid])AQ[αMe4Pal]EFI[dE][αMeY]LVEGGPSSGAPPPSGS-NH2 [Example 1205] sits?
yes (1)

Strictly below 0.4 µM: is that where EC50 of Y[Aib]QGT[αMePhe(2-F)]TSD[4Pal][αMeS]I[αMeL]LD[Orn]K([AEEA-γGlu-C18 diacid])AQ[αMe4Pal]EFI[dE][αMeY]LIEGGPPS[Aib][Orn]PPP[Orn]SE-NH2 [Example 1196] sits?
yes (1)

Strictly below 0.4 µM: is that where EC50 of H-Y[Aib]QGTFTSD[4Pal]S[Orn][αMeL]LD[Orn]K([dE-γGlu-C18 diacid])AQ[αMe4Pal]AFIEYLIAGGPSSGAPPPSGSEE-NH2 [Example 1063] sits?
no (0)

Strictly below 0.4 µM: is that where EC50 of Y[Aib]QGT[αMePhe(2-F)]TSD[4Pal][αMeS]I[αMeL]LD[Orn]K([AEEA-γGlu-C18 diacid])AQ[αMe4Pal]EFI[dE][αMeY]LVEGGPSSGAPPPSGGGE-NH2 [Example 769] sits?
yes (1)

Strictly below 0.4 µM: is that where EC50 of H-Y[Aib]QGTFTSD[4Pal]S[Orn][αMeL]LDKK([γGlu-γGlu-C18 diacid])AQ[Aib]AFIE[αMeY]LIEGGPSSGAPPPSGS-NH2 [Example 941] sits?
yes (1)

Strictly below 0.4 µM: is that where EC50 of H-Y[Aib]QGT[αMePhe(2-F)]TSD[4Pal][αMeS]I[αMeL]LD[Orn]K([AEEA-γGlu-C18 diacid])AQ[αMe4Pal]EFI[dE][αMeY]LIEGGPSSGAPPPSGSE-NH2 [Example 712] sits?
yes (1)

Strictly below 0.4 µM: is that where EC50 of H-Y[Aib]QGTFTSDFS[Orn][αMeL]LDKK([AEEA-γGlu-C18 diacid])AQ[Aib]AFIEYLLAGGPSSGAPPPSGSQ-OH [Example 88] sits?
yes (1)

Strictly below 0.4 µM: is that where EC50 of H-Y[Aib]QGTFTSDFS[Orn][αMeL]LDKK([AEEA-γGlu-C20 diacid])AQ[Aib]AFIEYLLAGGPSSGEPPPEGE-NH2 [Example 102] sits?
no (0)

Strictly below 0.4 µM: is that where EC50 of H-Y[Aib]QGTFTSDFS[Orn][αMeL]LDKK([AEEA-γGlu-C18 diacid])AQ[Aib]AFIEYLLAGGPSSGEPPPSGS-NH2 [Example 94] sits?
no (0)

Strictly below 0.4 µM: is that where EC50 of H-Y[Aib]QGT[αMePhe(2-F)]TSD[4Pal][αMeS]I[αMeL]LD[Orn]K([AEEA-γGlu-C18 diacid])AA[Aib]EFI[dE][αMeY]LIEGGPSSGAPPPSGTEQ-OH [Example 726] sits?
yes (1)

Strictly below 0.4 µM: is that where EC50 of H-Y[Aib]QGT[αMePhe(2-F)]TSDFSILLDKQAQK([AEEA-AEEA-γGlu-C20 diacid])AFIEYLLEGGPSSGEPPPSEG-NH2 [Example 346] sits?
no (0)

Strictly below 0.4 µM: is that where EC50 of H-Y[Aib]QGTFTSD[4Pal]SK[αMeL]LDKK([γGlu-γGlu-C18 diacid])AQ[Aib]AFIEYLIE[Aib]GPSSGAPPPSGSEEE-NH2 [Example 906] sits?
yes (1)
